test: Chemical stability assessment of peptides (relative purity loss); type: physicochemical; conditions: 50 mM HCl pH 1.2 + acetonitrile (1:1); 24 hours at 37° C.
Starred links: 1 amine or outer side, 2 acyl side, 3 side chain; linkers in the order of their positions; H or OH if unused. Positions of bridges follow the written chain, without caps; N, C: chain ends. Non-standard residues stand in square brackets, D forms with d. Residues, ends and D or L forms follow the SMILES beside them. *: point of attachment. Trp(7-Me) = Cc1cccc2c(C[C@H](N)C(=O)O)c[nH]c12; 2Nal = N[C@@H](Cc1ccc2ccccc2c1)C(=O)O; 3Pal = N[C@@H](Cc1cccnc1)C(=O)O; αMeL = CC(C)C[C@](C)(N)C(=O)O; Suc = O=C(CCC(=O)[*:2])[*:1]; Thp = NC1(C(=O)O)CCOCC1; Me2NCH2CH2 = CN(C)CC*; Aib = CC(C)(N)C(=O)O; Ava = NCCCCC(=O)O; βAla = NCCC(=O)O
property: Chemical stability (relative purity loss) Buffer pH 1.2 (%)
Write down the numeric answer in % and omit the unit.

molecule: CC(=O)NCCCC[C@@H]1NC(=O)[C@H](Cc2c[nH]c3c(C)cccc23)NC(=O)[C@H]([C@@H](C)O)NC(=O)[C@H](CC(N)=O)NC(=O)[C@@H]2CSSC[C@H](NC1=O)C(=O)N[C@@H](Cc1ccc(OCCN(C)C)cc1)C(=O)N[C@@H](Cc1ccc3ccccc3c1)C(=O)NC(C)(C)C(=O)N[C@H](C(=O)N[C@@H](CC(N)=O)C(=O)N[C@@H](Cc1c[nH]cn1)C(=O)NCCC(N)=O)CCC(=O)NCCCCC(=O)N2 [compound 48] ([Ava]CNT[Trp(7-Me)]K(Ac)CY(Me2NCH2CH2)[2Nal][Aib]ENH[βAla]-NH2; disulfide 2-7; lactam N-11)
experimentalResult: 12.5

The measured Chemical stability (relative purity loss) Buffer pH 1.2 associated with CC(=O)NCCCC[C@@H]1NC(=O)[C@H](Cc2c[nH]c3c(C)cccc23)NC(=O)[C@H]([C@@H](C)O)NC(=O)[C@H](CC(N)=O)NC(=O)[C@@H]2CSSC[C@H](NC1=O)C(=O)N[C@@H](Cc1ccc(OCCN(C)C)cc1)C(=O)N[C@@H](Cc1ccc3ccccc3c1)C(=O)NC1(CCOCC1)C(=O)N[C@H](C(=O)N[C@@H](CC(N)=O)C(=O)N[C@@H](Cc1c[nH]cn1)C(=O)NCCC(N)=O)CCC(=O)NCCCCC(=O)N2 [compound 49] ([Ava]CNT[Trp(7-Me)]K(Ac)CY(Me2NCH2CH2)[2Nal][Thp]ENH[βAla]-NH2; disulfide 2-7; lactam N-11) reads 11.6

The measured Chemical stability (relative purity loss) Buffer pH 1.2 associated with CC(=O)NCCCC[C@@H]1NC(=O)[C@H](Cc2c[nH]c3c(C)cccc23)NC(=O)[C@H]([C@@H](C)O)NC(=O)[C@H](CC(N)=O)NC(=O)[C@@H]2CSSC[C@H](NC1=O)C(=O)N[C@@H](Cc1ccc(OCCN(C)C)cc1)C(=O)N[C@@H](Cc1ccc3ccccc3c1)C(=O)NC1(CCOCC1)C(=O)N[C@H](C(=O)N[C@@H](CC(N)=O)C(=O)N[C@@H](Cc1cccnc1)C(N)=O)CCC(=O)NCCCCC(=O)N2 [compound 51] ([Ava]CNT[Trp(7-Me)]K(Ac)CY(Me2NCH2CH2)[2Nal][Thp]EN[3Pal]-NH2; disulfide 2-7; lactam N-11) reads 17.1

The measured Chemical stability (relative purity loss) Buffer pH 1.2 associated with CC(=O)NCCCC[C@@H]1NC(=O)[C@H](Cc2c[nH]c3c(C)cccc23)NC(=O)[C@H]([C@@H](C)O)NC(=O)[C@H](CC(N)=O)NC(=O)[C@@H]2CSSC[C@H](NC1=O)C(=O)N[C@@H](Cc1ccc(OCCN(C)C)cc1)C(=O)N[C@@H](Cc1ccc3ccccc3c1)C(=O)N[C@@](C)(CC(C)C)C(=O)N[C@H](C(=O)N[C@@H](CC(N)=O)C(=O)N[C@@H](Cc1c[nH]cn1)C(N)=O)CCCCNC(=O)CCC(=O)N2 [compound 23] (CNT[Trp(7-Me)]K(Ac)CY(Me2NCH2CH2)[2Nal][αMeL]KNH-NH2; disulfide 1-6; linker N-10 via Suc) reads 11.3
